target: Histone deacetylase 1 (Homo sapiens, UniProt Q13547, C151S); assay: Inhibitory concentration against human Histone deacetylase 1 (C151S)
Sequence (Q13547 whole entry C151S): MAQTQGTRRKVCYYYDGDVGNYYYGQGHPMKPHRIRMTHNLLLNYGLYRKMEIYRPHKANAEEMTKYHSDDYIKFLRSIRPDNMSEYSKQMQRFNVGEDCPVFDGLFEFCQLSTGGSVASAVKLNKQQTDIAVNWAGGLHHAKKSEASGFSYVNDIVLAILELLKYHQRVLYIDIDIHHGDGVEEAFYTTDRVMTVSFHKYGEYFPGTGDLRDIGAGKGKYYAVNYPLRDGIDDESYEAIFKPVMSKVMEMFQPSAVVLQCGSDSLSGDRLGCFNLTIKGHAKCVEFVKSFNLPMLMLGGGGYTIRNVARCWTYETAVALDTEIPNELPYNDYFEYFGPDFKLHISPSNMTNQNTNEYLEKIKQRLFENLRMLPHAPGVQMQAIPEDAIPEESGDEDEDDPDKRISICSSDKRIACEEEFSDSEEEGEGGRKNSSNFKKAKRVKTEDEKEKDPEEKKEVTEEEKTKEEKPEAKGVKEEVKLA
Measurement name: pIC50
// returns pIC50 (minus log10 of molar concentration), number only

Data request: # returns recorded pIC50 (system: Histone deacetylase 1 (Homo sapiens, UniProt Q13547, C151S)) for `C/C=C1\NC(=O)[C@H]2CSSCC/C=C/[C@H](CC(=O)N[C@H](C(C)C)C(=O)N2)OC(=O)[C@H](C(C)C)NC1=O`
Data returned: 6.55

* * *

target: Histone deacetylase; format: protein assay, Homo sapiens
Description: Inhibitory concentration against histone deacetylase
Consider the following compounds and their measured IC50 readings.
Include the unit after the number when you answer.

Data request: Item `CC(C)n1cc(C(=O)c2ccccc2)cc1/C=C/C(=O)NO` has what recorded IC50?
Data returned: 53 µM

Data request: Then `Cc1ccc(C(=O)c2cc(/C=C/C(=O)NO)n(C)c2)cc1` ?
Data returned: 1.9 µM

Data request: Another compound to look at: `Cn1cc(C(=O)/C=C/c2ccccc2)cc1/C=C/C(=O)NO`
Data returned: 1 µM

* * *

molecular target: Histone deacetylase 1 (Homo sapiens, UniProt Q13547)
Sequence (Q13547 whole entry): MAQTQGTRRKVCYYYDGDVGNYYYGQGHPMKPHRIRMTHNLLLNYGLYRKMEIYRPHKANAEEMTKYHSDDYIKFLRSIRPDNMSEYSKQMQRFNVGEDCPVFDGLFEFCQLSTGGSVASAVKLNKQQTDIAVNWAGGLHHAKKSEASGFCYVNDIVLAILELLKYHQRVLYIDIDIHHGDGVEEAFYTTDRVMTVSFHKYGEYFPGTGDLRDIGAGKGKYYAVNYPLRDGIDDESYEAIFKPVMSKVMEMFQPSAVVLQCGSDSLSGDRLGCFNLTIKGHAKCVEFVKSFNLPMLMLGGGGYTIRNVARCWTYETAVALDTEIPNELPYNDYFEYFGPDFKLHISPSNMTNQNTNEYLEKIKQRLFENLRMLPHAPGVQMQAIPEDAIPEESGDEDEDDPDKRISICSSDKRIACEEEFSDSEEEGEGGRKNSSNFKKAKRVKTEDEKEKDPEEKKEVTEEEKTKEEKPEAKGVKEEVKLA
Measurement name: pIC50
By convention, pIC50 is the negative base-10 log of a molar concentration.

Data request: // query pIC50 value for entry `C/C=C1\NC(=O)[C@@H](CSC)NC(=O)[C@@H](C(C)C)CC(=O)C[C@@H](/C=C/CCSC)OC(=O)[C@H](C(C)C)NC1=O`
Data returned: 5.20

* * *

biological target: Histone deacetylase; type: protein assay, Homo sapiens
Description: Inhibitory concentration against human histone deacetylase
Measurement name: log10 IC50 (log10 of the value in nM)
Please interpret these as log10 of IC50 where IC50 is in nM.

Example entries begin here.
INSERT INTO assay_data (compound, target_system, result_number) VALUES
  ('O=C(CCCCCCNC(=O)c1ccc[nH]1)NO', 'Histone deacetylase', 2.72),
  ('O=C(CCCCCCNC(=O)c1ccc2[nH]ccc2c1)NO', 'Histone deacetylase', 1.50),
  ('O=C(CCCCCCNC(=O)c1cccc2[nH]ccc12)NO', 'Histone deacetylase', 1.90),
  ('COc1cc(OC)c2cc(C(=O)NCCCCCCC(=O)NO)[nH]c2c1', 'Histone deacetylase', 0.49),
  ('O=C(CCCCCCNC(=O)c1ccccc1)NO', 'Histone deacetylase', 3.00),
  ('O=C(/C=C/CCCCOc1ccc(-c2ccccc2)cc1)C(F)(F)F', 'Histone deacetylase', 3.70),
  ('O=C(CCCCCCNC(=O)c1cc2ccccc2[nH]1)NO', 'Histone deacetylase', 1.16),
  ('COc1ccc2[nH]c(C(=O)NCCCCCCC(=O)NO)cc2c1', 'Histone deacetylase', 0.81);

Switching to the query record.
Data request: # query: log10 IC50 of entry `O=C(CCCCCCNC(=O)c1cccc2cc[nH]c12)NO`
Data returned: 1.61

* * *

Molecular target: Histone deacetylase HD2 (Zea mays)
Sequence (Q94F81 whole entry): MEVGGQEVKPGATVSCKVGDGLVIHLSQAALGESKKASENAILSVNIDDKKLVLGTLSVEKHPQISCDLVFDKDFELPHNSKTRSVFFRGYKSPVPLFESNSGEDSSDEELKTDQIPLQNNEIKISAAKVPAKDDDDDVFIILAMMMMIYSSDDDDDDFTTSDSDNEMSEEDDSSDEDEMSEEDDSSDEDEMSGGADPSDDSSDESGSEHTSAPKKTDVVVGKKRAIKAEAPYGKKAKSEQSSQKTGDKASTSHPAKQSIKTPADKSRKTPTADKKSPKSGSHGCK
Measurement name: IC50

Data request: Look up IC50: `CN(C)c1ccc(C(=O)Nc2ccc(CC(=O)NO)cc2)cc1`
Data returned: > 40 µM

* * *

Recorded measurements of IC50, one per entry
target: Histone deacetylase; format: protein assay, Homo sapiens
Give a bare numeral; the unit nM is implied.

Past entries and their recorded results:
INSERT INTO results (compound, result_number) VALUES
  ('Cn1cc(C(=O)c2ccc(F)cc2)cc1/C=C/C(=O)NO', 3800),
  ('O=C(/C=C/c1ccc(CNCCCc2ccccc2)cc1)NO', 64);

Data request: May I ask what IC50 has been recorded for `O=C(NO)c1ccc(CNC(=O)c2ccc3ccccc3c2)cc1` ?
Data returned: 44

Data request: Now give it for `Cn1cc(C(=O)c2ccccc2)cc1/C=C/C(=O)NO` too.
Data returned: 3800

Data request: Entry `COc1ccc(C(=O)c2cc(/C=C/C(=O)NO)n(C)c2)cc1` please
Data returned: 2900

Data request: Check `O=C(/C=C/c1cc(C(=O)c2ccccc2)cn1-c1ccccc1)NO` too.
Data returned: 110000

Data request: // repeat for `O=C(/C=C/c1cc(C(=O)c2ccccc2)c[nH]1)NO` and report
Data returned: 5000

Data request: Try `CN(C)c1ccc(C(=O)c2cc(/C=C/C(=O)NO)n(C)c2)cc1` next.
Data returned: 2400

Data request: Try `Cn1cc(C(=O)c2ccccc2)cc1CCC(=O)NO` next.
Data returned: 36800

Data request: // same read-out, input: O=C(NCC1CCC(C(=O)NO)CC1)c1ccc(-c2ccccc2)cc1 (stereo unspecified)
Data returned: 310

Data request: Try this compound too: `O=C(NO)c1ccc(CNC(=O)c2ccc(-c3ccccc3)cc2)cc1`
Data returned: 240

* * *

target: Histone deacetylase; assay: Inhibitory concentration against human Histone deacetylase in Hela cells; format: cell-based
Lab note: compare IC50 with 0.4 nM, writing true (1) if less and false (0) if equal or more.

Data request: Take the compound CC[C@H](C)[C@@H]1NC(=O)[C@H](Cc2cn(OC)c3ccccc23)NC(=O)[C@H](CCCCCC(=O)C2CO2)NC(=O)[C@H]2CCCCN2C1=O (some centres undefined) and say whether its IC50 is less than 0.4 nM.
Data returned: true (1)

Data request: Further, for CC[C@H](C)[C@@H]1NC(=O)[C@H](Cc2cn(OC)c3ccccc23)NC(=O)[C@H](CCCCCC(=O)C(C)O)NC(=O)[C@H]2CCCCN2C1=O (some centres undefined) ?
Data returned: true (1)

Data request: Param item: CC[C@H](C)[C@@H]1NC(=O)[C@H](Cc2cn(OC)c3ccccc23)NC(=O)[C@H](CCCCCC(=O)C(C)F)NC(=O)[C@H]2CCCCN2C1=O (some centres undefined)
Data returned: false (0)

Data request: Same question for `CC[C@H](C)[C@@H]1NC(=O)[C@H](Cc2cn(OC)c3ccccc23)NC(=O)[C@H](CCCCC(=O)OC)NC(=O)[C@H]2CCCCN2C1=O` please.
Data returned: false (0)

Data request: // next record `CC[C@H](C)[C@@H]1NC(=O)[C@H](Cc2cn(OC)c3ccccc23)NC(=O)[C@H](CCCCCC(=O)NO)NC(=O)[C@H]2CCCCN2C1=O`
Data returned: true (1)

Data request: Follow-up item: CCC(=O)C(F)CCCC[C@@H]1NC(=O)[C@H]2CCCCN2C(=O)[C@H]([C@@H](C)CC)NC(=O)[C@H](Cc2cn(OC)c3ccccc23)NC1=O (some centres undefined)
Data returned: false (0)

Data request: Let us now turn to `CC[C@H](C)[C@@H]1NC(=O)[C@H](Cc2cn(OC)c3ccccc23)NC(=O)[C@H](CCCCCC(=O)O)NC(=O)[C@H]2CCCCN2C1=O`
Data returned: false (0)

Data request: Same lookup for `CC[C@H](C)[C@@H]1NC(=O)[C@H](Cc2cn(OC)c3ccccc23)NC(=O)[C@H](CCCCCCC(=O)OC)NC(=O)[C@H]2CCCCN2C1=O` , please.
Data returned: false (0)

* * *

target: Histone deacetylase; assay: Inhibitory concentration against isolated Histone deacetylase; assay type: protein assay, Homo sapiens
# binning rule on IC50: Low: < 40 nM; Medium: ≥ 40 nM and < 70000 nM; High: ≥ 70000 nM

Data request: Assign a bin to `O=C(O)C(=O)NCCSSCCNC(=O)/C(Cc1ccc(O)c(Br)c1)=N/O`
Data returned: Low

Data request: Try this compound too: `NC(=O)C(=O)NCCSSCCNC(=O)/C(Cc1ccc(O)c(Br)c1)=N/O`
Data returned: Medium

Data request: Now give it for `Cn1cc(C(=O)Cc2ccccc2)cc1C=C1C(=O)NC(=S)NC1=O` too.
Data returned: High

Data request: What about `Cn1cc(C(=O)c2ccccc2)cc1/C=C/C(=N)N` ?
Data returned: Medium

Data request: // next record `Cn1cc(C(=O)Cc2ccccc2)cc1C=C1C(=O)NC(=O)NC1=O`
Data returned: High

Data request: Now consider `COC(=O)NCCSSCCNC(=O)/C(Cc1ccc(O)c(Br)c1)=N/O` .
Data returned: Medium

Data request: Then `CCOC(=O)NCCSSCCNC(=O)/C(Cc1ccc(O)c(Br)c1)=N/O` ?
Data returned: Medium

Data request: Also, `O=C(NCCSSCCNC(=O)/C(Cc1ccc(O)c(Br)c1)=N/O)/C(Cc1ccc(O)c(Br)c1)=N/O` please.
Data returned: Low
